Origin of measurements: ChEMBL document CHEMBL3739285

Recorded pKi for the following compounds
molecular target: UniProt:O43570
Sequence (O43570 whole entry): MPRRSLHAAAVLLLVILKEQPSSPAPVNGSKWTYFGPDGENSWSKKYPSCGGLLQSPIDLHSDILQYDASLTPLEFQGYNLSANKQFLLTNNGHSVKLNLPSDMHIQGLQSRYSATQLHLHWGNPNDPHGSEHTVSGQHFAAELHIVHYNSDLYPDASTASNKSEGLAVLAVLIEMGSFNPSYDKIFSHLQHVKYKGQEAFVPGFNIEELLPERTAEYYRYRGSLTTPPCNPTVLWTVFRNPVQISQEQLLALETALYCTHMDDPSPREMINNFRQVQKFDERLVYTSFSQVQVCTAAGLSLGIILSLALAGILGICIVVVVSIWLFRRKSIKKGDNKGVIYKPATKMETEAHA
pKi: −log10 of the molar value.
readout: pKi

smiles_record	readout	result_value
NS(=O)(=O)c1ccc(CNC(=S)Nc2ccc(-c3c4ccc(=O)cc-4oc4cc(O)ccc34)c(C(=O)O)c2)cc1	pKi	8.15
CN(C)c1ccc2c(-c3ccc(NC(=S)NCc4cn(-c5cccc(S(N)(=O)=O)c5)nn4)cc3C(=O)O)c3ccc(=[N+](C)C)cc-3oc2c1	pKi	7.97

* * *

Record type: Ki measurement. Applies to: UniProtKB P00915
Sequence (P00915 whole entry): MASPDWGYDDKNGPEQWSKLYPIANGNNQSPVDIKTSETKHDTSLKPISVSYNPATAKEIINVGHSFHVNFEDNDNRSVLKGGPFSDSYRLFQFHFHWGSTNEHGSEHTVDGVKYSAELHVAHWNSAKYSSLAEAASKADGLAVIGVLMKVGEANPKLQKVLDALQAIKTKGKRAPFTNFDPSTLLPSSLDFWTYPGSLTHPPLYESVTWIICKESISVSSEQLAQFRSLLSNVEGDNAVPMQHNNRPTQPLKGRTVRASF
readout: Ki (µM)

smiles_record	units	result_value
NS(=O)(=O)c1ccc(-n2cc(CNC(=S)Nc3ccc(-c4c5ccc(=O)cc-5oc5cc(O)ccc45)c(C(=O)O)c3)nn2)cc1	µM	2.56
NS(=O)(=O)c1cccc(-n2cc(CNC(=S)Nc3ccc(-c4c5ccc(=O)cc-5oc5cc(O)ccc45)c(C(=O)O)c3)nn2)c1	µM	7.63
